- TARGET_SYSTEM: ZFP SBS#1441 (synthetic)
- Sequence (chain, as listed by the source): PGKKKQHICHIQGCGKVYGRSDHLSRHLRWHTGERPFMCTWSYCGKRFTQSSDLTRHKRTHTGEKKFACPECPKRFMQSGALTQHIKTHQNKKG
- EXPERIMENTAL_PROTOCOL: EMSA
- ASSAY_SETUP: tags: MBP fusion
QUANTITY_NAME: Kd (pM)
Answers are plain numbers, in pM.

Would you kindly share the measured Kd for ATAGCTGGG (dsDNA) DNA 1: ATAGCTGGG DNA 2: CCCAGCTAT ? 262
